- Tested on: SK-MEL-28
- test.details: Tested in vitro for anticancer activity against SK-MEL-28 cells
- Assay type: functional, cell-based
- condition.description: Homo sapiens
pIC50: −log10 of the molar value.
Below is a list of entries, each paired with its recorded pIC50 value.

Nc1nc(=O)n([C@@H]2C=C[C@@H](CO)O2)cc1F
< 4.00
CCCNc1nc(=O)n([C@H]2C=C[C@@H](CO)O2)cc1F
< 4.00
Nc1nc(=O)n([C@H]2C=C[C@@H](CO)O2)cc1I
< 4.00

Let's switch to this molecule now.
So, CCCCC(=O)OC[C@@H]1C=C[C@H](n2cc(F)c(N)nc2=O)O1 ? Its pIC50 was < 4.00

###

- System: Human immunodeficiency virus 1
- test.details: Tested in vitro for anti HIV-1 activity against PBM cells
- Type: functional, organism-based
- condition.description: Human immunodeficiency virus 1, PBMC
pEC50: −log10 of the molar value.
Below is a list of entries, each paired with its recorded pEC50 value.

Here's what some known entries look like.
CCCNc1nc(=O)n([C@H]2C=C[C@@H](CO)O2)cc1F
< 4.00
Nc1nc(=O)n([C@H]2C=C[C@@H](CO)O2)cc1Br
< 5.00

Let's switch to this compound now.
So, Nc1nc(=O)n([C@H]2C=C[C@@H](CO)O2)cc1I ? Its pEC50 was < 5.00

Cited source for all entries: ChEMBL document CHEMBL1132699
